- measured.on: DNA topoisomerase 1 (Homo sapiens, UniProt P11387)
- Sequence (P11387 whole entry): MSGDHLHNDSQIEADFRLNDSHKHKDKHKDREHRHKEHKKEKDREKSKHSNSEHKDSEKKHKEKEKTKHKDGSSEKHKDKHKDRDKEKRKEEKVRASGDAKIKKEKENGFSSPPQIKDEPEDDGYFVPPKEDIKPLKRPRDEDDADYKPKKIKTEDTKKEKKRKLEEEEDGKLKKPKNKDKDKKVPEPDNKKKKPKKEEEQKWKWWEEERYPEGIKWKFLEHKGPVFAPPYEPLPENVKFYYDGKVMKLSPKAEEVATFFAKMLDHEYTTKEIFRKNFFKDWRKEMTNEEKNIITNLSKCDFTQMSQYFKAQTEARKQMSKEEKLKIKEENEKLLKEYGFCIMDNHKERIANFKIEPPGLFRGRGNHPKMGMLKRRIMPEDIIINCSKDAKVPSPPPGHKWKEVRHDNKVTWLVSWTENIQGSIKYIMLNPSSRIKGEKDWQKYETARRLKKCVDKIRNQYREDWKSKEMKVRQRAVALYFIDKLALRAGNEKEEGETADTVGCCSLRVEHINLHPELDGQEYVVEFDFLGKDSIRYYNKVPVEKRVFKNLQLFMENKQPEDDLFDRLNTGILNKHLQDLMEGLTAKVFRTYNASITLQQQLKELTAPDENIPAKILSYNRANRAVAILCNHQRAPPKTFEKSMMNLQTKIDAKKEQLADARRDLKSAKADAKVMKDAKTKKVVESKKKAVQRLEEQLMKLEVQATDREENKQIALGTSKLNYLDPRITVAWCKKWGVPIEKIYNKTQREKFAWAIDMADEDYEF
- protocol.summary: In vitro activity against topoisomerase-1 mediated cleavage of supercoiled pBR322 plasmid DNA
measured.quantity: EC50

molecule: O=C1NC(=O)c2c1c1c3cccc(O)c3[nH]c1c1c2c2cccc(O)c2n1C1OC(CO)C(O)C(O)C1O (stereo not given)
measured.on: DNA topoisomerase 1 (Homo sapiens, UniProt P11387)
measured.value: 3000 nM

molecule: CC(=O)NN1C(=O)c2c(c3c4cccc(O)c4n(C4OC(CO)C(O)C(O)C4O)c3c3[nH]c4c(O)cccc4c23)C1=O (stereo not given)
measured.on: DNA topoisomerase 1 (Homo sapiens, UniProt P11387)
measured.value: 1000 nM

molecule: CCC(=O)NN1C(=O)c2c(c3c4cccc(O)c4n(C4OC(CO)C(O)C(O)C4O)c3c3[nH]c4c(O)cccc4c23)C1=O (stereo not given)
measured.on: DNA topoisomerase 1 (Homo sapiens, UniProt P11387)
measured.value: 480 nM

molecule: O=CNN1C(=O)c2c(c3c4cccc(O)c4n(C4OC(CO)C(O)C(O)C4O)c3c3[nH]c4c(O)cccc4c23)C1=O (stereo not given)
measured.on: DNA topoisomerase 1 (Homo sapiens, UniProt P11387)
measured.value: 700 nM

molecule: O=C1c2c(c3c4cccc(O)c4n(C4OC(CO)C(O)C(O)C4O)c3c3[nH]c4c(O)cccc4c23)C(=O)N1NCCO (stereo not given)
measured.on: DNA topoisomerase 1 (Homo sapiens, UniProt P11387)
measured.value: 430 nM

Let us move to another entry and its EC50.
Reported EC50 ( NN1C(=O)c2c(c3c4cccc(O)c4n(C4OC(CO)C(O)C(O)C4O)c3c3[nH]c4c(O)cccc4c23)C1=O (stereo not given) ) = 270 nM
